Data credit: patent US20230416203A1

target: KCa2.3 (Homo sapiens, UniProt Q9UGI6); construct: expressed in transfected cells; host or cells: COS7; experiment: Potassium channels patch-clamp (QPatch), KCa2.3; type: cell-based
Sequence (Q9UGI6 whole entry): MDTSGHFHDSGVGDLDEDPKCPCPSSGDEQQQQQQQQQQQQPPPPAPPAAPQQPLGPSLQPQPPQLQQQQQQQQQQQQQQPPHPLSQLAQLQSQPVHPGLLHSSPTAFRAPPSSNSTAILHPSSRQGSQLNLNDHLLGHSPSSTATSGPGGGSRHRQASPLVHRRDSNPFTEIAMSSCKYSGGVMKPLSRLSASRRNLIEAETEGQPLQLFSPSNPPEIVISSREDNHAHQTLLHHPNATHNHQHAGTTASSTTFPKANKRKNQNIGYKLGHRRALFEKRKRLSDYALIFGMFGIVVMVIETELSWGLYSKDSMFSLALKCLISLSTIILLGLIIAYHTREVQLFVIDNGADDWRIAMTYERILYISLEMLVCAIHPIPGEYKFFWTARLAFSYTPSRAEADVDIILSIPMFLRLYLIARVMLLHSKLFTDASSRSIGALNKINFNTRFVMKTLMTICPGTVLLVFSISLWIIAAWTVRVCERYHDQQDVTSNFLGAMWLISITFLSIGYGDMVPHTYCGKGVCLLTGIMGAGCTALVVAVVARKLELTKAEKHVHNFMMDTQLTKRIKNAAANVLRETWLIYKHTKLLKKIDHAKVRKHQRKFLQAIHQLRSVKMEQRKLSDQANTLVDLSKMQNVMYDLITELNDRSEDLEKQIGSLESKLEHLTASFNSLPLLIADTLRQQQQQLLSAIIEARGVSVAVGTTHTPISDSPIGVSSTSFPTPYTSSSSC
endpoint_label: IC50 (µM)
Express your answer in µM, writing the number without its unit.

Looking up COC(=O)C1=C(C)NC(C)=C(C(=O)OC)C1c1ccc(F)c(C(F)(F)F)c1 , I see its IC50 listed as 8

---

Below: a set of entries, each annotated with reported IC50.
molecular target: KCa3.1 channel (Homo sapiens, UniProt O15554); assay: KCa3.1 patch-clamp (QPatch HTX automated and manual); format: cell-based; settings: IC50 (nM), block of KCa3.1, patch clamp (Table 2)

Solved cases below.
compound	experimental_system	IC50
COCCOC(=O)C1=C(C)NC(C)=C(C(=O)OCCOC)C1c1cccc([N+](=O)[O-])c1	KCa3.1 channel (Homo sapiens, UniProt O15554)	9880 nM
COC(=O)C1=CNC=C(C(=O)OC)C1c1ccc(Cl)c(C(F)(F)F)c1	KCa3.1 channel (Homo sapiens, UniProt O15554)	5.7 nM
COC(=O)C1=CNC=C(C(=O)OC)C1c1cc(F)c(F)c(C(F)(F)F)c1	KCa3.1 channel (Homo sapiens, UniProt O15554)	6.9 nM

In the following, a different compound is considered.
Looking up COC(=O)C1=C(C)NC(C)=C(C(C)=O)C1c1cccc([N+](=O)[O-])c1 (stereo not shown) , I see its IC50 listed as 142 nM

---

Below: a set of entries, each annotated with reported pIC50.
biological target: UniProtKB O15554; assay: KCa3.1 patch-clamp (QPatch HTX automated and manual); assay type: cell-based; conditions: block of KCa3.1, patch clamp (Table 2); read-out: IC50
A value of pIC50 is the negative decimal logarithm of a concentration given in moles per litre.

compound	pIC50
CCOC(=O)C1=C(C)NC(C)=C(C(=O)OC)C1c1cccc([N+](=O)[O-])c1 (stereo not shown)	5.64

In the following, a different compound is considered.
Looking up COC(=O)C1=C(C)NC(C)=C(C(=O)OC)C1c1ccccc1[N+](=O)[O-] , I see its pIC50 listed as 5.40

---

assay: Plasma and liver studies after 14 days of repeated oral dose; format: in vivo, C57/BL6 mice; conditions: C57/BL6, mouse, liver/plasma; 25 mg/kg BID oral 14 days, Male mice; read-out: Liver to Plasma Ratio
endpoint_label: Kp at 14 days

Looking up COC(=O)C1=CNC=C(C(=O)OC)C1c1ccc(F)c(C(F)(F)F)c1 , I see its Kp at 14 days listed as 36

---

molecular target: CYP-3A4 (Homo sapiens, UniProt P08684)
Sequence (P08684 whole entry): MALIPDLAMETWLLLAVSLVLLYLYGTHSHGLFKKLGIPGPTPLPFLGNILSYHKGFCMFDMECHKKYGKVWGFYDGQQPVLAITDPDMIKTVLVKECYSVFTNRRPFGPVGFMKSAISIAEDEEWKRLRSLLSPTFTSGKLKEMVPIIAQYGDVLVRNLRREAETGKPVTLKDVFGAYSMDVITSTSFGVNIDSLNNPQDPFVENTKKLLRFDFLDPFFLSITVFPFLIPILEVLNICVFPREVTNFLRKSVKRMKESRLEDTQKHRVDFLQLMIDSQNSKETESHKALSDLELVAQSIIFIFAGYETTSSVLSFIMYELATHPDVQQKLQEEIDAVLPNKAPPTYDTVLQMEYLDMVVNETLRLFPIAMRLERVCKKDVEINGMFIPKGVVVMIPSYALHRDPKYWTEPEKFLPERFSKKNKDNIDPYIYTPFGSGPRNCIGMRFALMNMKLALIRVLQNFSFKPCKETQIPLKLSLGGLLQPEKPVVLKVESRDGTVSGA
endpoint_label: IC50 (µM)
Express your answer in µM, writing the number without its unit.

IC50 on CYP-3A4 (Homo sapiens, UniProt P08684) for COC(=O)C1=C(C)NC(C)=C(C(=O)OC)C1c1ccc(F)c(C(F)(F)F)c1 [Compound 101] is 1.3

---

test: Plasma and liver studies after 14 days of repeated oral dose; assay type: in vivo, C57/BL6 mice; settings: C57/BL6, mouse, plasma; 50 mg/kg BID oral 14 days, Male mice; read-out: Average Concentration Plasma
endpoint_label: concentration at 14 days (ng/mL)
Express your answer in ng/mL, writing the number without its unit.

Looking up COC(=O)C1=CNC=C(C(=O)OC)C1c1ccc(F)c(C(F)(F)F)c1 , I see its concentration at 14 days listed as 929

---

molecular target: KCa2.3 (Homo sapiens); construct: expressed in transfected cells; host or cells: COS7; experiment: Potassium channels patch-clamp (QPatch), KCa2.3; type: cell-based; details: COS7 Human KCa2.3; read-out: KCa2.3
endpoint_label: IC50

Solved cases below.
compound	IC50
COC(=O)C1=CNC=C(C(=O)OC)C1c1cc(F)cc(C(F)(F)F)c1	> 10 µM
COC(=O)C1=CNC=C(C(=O)OC)C1c1cc(F)c(F)c(C(F)(F)F)c1	> 10 µM
COC(=O)C1=CNC(C)=C(C(=O)OC)C1c1ccc(F)c(C(F)(F)F)c1 (centres unmarked)	8 µM
COC(=O)C1=CNC=C(C(=O)OC)C1c1cccc(C(F)(F)F)c1	7 µM

In the following, a different compound is considered.
IC50 on KCa2.3 (Homo sapiens) for COC(=O)C1=CNC=C(C(=O)OC)C1c1ccc(Cl)c(C(F)(F)F)c1 is > 10 µM

---

Biological target: KV1.5 (Homo sapiens)
Construct: expressed in transfected cells; host or cells: MEL
Assay: Potassium channels patch-clamp (QPatch), KV1.5
Assay type: cell-based
Protocol: The effects of Group 4 compounds on related potassium channels were evaluated by patch-clamp using a QPatch HTX automated electrophysiology platform (Sophion, Denmark). The giga-seal and whole-cell requirements for the automated electrophysiology were the following: minimum seal resistance=0.1 GO, holding potential=−80 mV, holding pressure=−20 mbar; and positioning pressure=−70 mbar.
pIC50: −log10 of the molar value.
Below: a set of entries, each annotated with reported pIC50.

COC(=O)C1=C(C)NC(C)=C(C(=O)OC)C1c1ccc(F)c(C(F)(F)F)c1 < 5.00

In the following, a different molecule is considered.
Looking up COC(=O)C1=CNC=C(C(=O)OC)C1c1ccc(F)c(C(F)(F)F)c1 , I see its pIC50 listed as < 5.00

---

experiment: Plasma protein binding assay (equilibrium dialysis), mouse plasma; assay type: in vitro ADME; settings: pH 7.4
endpoint_label: fraction unbound at 4.5 h, 3 μM
Respond using a number only.

Looking up COC(=O)C1=C(C)NC(C)=C(C(=O)OC)C1c1ccc(F)c(C(F)(F)F)c1 , I see its fraction unbound at 4.5 h, 3 μM listed as 0.0088

---

target: KV3.1 (Mus musculus, UniProt P15388); construct: expressed in transfected cells; host or cells: L929; assay: Potassium channels patch-clamp (QPatch), KV3.1; type: cell-based
Sequence (P15388 whole entry): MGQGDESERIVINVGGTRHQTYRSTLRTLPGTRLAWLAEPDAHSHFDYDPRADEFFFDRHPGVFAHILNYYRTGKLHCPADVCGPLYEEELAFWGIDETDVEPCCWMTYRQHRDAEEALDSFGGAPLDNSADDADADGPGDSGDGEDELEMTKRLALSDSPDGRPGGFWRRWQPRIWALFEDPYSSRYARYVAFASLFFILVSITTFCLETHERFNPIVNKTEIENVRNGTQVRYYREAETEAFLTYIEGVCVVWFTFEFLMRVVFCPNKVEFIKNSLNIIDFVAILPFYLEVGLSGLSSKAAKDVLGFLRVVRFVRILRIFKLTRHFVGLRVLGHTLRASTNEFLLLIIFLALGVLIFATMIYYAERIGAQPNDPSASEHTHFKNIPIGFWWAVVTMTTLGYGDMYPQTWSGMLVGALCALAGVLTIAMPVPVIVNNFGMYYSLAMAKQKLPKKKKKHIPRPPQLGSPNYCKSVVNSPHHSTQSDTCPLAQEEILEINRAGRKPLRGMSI
pIC50: −log10 of the molar value.
endpoint_label: pIC50

COC(=O)C1=C(C)NC(C)=C(C(=O)OC)C1c1ccc(F)c(C(F)(F)F)c1 < 5.00

In the following, a different compound is considered.
Looking up COC(=O)C1=CNC=C(C(=O)OC)C1c1ccc(F)c(C(F)(F)F)c1 , I see its pIC50 listed as < 5.00

---

target: KV1.4 (Homo sapiens); construct: expressed in transfected cells; host or cells: LTK; experiment: Potassium channels patch-clamp (QPatch), KV1.4; format: cell-based; settings: LTK Human KV1.4; read-out: KV1.4
Sequence (P22459 whole entry): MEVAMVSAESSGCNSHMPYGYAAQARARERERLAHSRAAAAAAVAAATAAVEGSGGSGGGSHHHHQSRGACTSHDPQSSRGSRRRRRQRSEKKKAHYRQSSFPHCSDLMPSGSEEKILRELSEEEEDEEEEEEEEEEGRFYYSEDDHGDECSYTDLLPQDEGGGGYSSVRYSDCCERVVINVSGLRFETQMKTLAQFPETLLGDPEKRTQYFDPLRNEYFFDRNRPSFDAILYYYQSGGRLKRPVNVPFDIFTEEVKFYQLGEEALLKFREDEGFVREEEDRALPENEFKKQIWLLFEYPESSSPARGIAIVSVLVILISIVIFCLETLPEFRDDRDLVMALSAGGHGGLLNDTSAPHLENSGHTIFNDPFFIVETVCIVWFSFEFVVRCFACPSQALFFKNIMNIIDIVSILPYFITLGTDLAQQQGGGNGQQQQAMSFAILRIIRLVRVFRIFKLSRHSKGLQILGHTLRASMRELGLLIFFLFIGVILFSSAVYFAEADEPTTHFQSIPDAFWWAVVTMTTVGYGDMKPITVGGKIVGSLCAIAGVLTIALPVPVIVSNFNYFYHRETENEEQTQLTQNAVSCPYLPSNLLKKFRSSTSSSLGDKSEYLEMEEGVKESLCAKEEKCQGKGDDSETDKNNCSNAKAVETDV
Below: a set of entries, each annotated with reported IC50.

molecule	IC50
COC(=O)C1=CNC=C(C(=O)OC)C1c1cccc(C(F)(F)F)c1	> 10 µM

In the following, a different molecule is considered.
IC50 on KV1.4 (Homo sapiens) for COC(=O)C1=CNC(C)=C(C(=O)OC)C1c1ccc(F)c(C(F)(F)F)c1 (centres unmarked) is > 10 µM

---

Below: a set of entries, each annotated with reported pIC50.
target: CaV1.2 channel (Homo sapiens)
Sequence (Q13936 whole entry): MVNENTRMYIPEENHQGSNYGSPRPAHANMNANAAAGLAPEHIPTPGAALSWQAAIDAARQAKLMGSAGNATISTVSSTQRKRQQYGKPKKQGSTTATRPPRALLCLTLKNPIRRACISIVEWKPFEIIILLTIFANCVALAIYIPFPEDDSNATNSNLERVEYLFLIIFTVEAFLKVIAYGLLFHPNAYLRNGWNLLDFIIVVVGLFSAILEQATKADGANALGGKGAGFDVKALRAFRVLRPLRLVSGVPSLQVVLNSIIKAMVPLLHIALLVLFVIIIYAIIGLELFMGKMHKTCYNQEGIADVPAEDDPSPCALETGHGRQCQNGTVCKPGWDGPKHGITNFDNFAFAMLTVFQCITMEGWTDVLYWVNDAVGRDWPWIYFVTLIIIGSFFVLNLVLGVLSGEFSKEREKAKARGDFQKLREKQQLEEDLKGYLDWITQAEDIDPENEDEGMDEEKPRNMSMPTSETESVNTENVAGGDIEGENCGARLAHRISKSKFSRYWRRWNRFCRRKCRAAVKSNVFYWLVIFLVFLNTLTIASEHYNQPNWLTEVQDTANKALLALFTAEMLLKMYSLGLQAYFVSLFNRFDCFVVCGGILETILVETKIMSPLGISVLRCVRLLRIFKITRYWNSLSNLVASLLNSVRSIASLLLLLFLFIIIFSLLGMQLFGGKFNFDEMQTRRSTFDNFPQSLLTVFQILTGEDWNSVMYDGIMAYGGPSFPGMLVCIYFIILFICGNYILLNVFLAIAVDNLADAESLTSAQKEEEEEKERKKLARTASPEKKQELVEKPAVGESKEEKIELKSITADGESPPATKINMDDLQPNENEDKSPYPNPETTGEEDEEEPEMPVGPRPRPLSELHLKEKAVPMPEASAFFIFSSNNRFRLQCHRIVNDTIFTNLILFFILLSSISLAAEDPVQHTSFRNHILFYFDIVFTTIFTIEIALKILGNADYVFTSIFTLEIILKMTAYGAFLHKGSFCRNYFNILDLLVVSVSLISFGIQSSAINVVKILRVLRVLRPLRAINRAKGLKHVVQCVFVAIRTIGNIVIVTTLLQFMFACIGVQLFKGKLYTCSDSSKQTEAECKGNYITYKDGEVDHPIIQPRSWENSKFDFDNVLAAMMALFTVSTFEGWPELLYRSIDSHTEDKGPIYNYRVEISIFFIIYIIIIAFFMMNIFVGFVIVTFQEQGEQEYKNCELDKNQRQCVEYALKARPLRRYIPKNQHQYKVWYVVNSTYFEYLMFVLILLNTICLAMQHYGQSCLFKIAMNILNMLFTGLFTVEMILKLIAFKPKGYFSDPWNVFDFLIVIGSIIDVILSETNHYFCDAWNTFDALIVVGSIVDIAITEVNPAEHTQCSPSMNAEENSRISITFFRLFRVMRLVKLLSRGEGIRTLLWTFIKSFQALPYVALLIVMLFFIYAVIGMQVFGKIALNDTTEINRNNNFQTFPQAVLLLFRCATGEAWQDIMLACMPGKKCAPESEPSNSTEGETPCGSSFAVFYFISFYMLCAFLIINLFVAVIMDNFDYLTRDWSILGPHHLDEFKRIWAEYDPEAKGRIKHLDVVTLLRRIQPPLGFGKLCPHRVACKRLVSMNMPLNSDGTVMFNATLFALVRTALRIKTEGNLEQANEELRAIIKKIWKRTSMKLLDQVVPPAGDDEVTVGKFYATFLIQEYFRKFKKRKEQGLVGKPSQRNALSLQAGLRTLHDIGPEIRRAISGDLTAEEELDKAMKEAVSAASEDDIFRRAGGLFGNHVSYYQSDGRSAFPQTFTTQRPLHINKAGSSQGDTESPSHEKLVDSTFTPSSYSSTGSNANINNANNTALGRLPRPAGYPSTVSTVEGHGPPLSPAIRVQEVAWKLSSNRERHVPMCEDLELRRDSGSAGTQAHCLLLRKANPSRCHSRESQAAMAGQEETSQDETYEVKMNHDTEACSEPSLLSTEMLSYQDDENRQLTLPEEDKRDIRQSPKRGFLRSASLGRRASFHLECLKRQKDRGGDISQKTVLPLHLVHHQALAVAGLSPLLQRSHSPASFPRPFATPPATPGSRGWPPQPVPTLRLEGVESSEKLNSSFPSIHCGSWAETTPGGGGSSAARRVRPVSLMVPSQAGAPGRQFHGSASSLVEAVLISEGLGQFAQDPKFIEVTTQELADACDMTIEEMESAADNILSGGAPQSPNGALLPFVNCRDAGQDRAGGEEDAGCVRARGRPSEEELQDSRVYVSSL
A value of pIC50 is the negative decimal logarithm of a concentration given in moles per litre.

Solved cases below.
compound	pIC50
COC(=O)C1=CNC=C(C(=O)OC)C1c1ccc(Cl)c(C(F)(F)F)c1	5.43
COC(=O)C1=C(C)NC(C)=C(C(C)=O)C1c1cccc([N+](=O)[O-])c1 (stereo not shown)	5.70
COC(=O)C1=CNC=C(C(=O)OC)C1c1cccc(C(F)(F)F)c1	4.66
COC(=O)C1=C(C)NC(C)=C(C(=O)OC)C1c1ccc(F)c(C(F)(F)F)c1	5.49

Looking up COC(=O)C1=CNC=C(C(=O)OC)C1c1ccc(F)c(C(F)(F)F)c1 , I see its pIC50 listed as 4.87

Looking up COC(=O)C1=CNC(C)=C(C(=O)OC)C1c1ccc(F)c(C(F)(F)F)c1 (stereo not shown) , I see its pIC50 listed as 5.31

Looking up COC(=O)C1=C(C)NC(C)=C(C(=O)OC)C1c1ccc(Cl)c(C(F)(F)F)c1 , I see its pIC50 listed as 5.62

Looking up COC(=O)C1=C(C)NC(C)=C(C(C)=O)C1c1ccc(F)c(C(F)(F)F)c1 (stereo not shown) , I see its pIC50 listed as 5.82

Looking up COC(=O)C1=CNC=C(C(=O)OC)C1c1cc(F)cc(C(F)(F)F)c1 , I see its pIC50 listed as 4.97

Looking up COC(=O)C1=CNC=C(C(=O)OC)C1c1cc(F)c(F)c(C(F)(F)F)c1 , I see its pIC50 listed as 5.04

---

assay: Plasma and brain distribution studies; settings: male, C57BL/6, mouse, plasma, ip, 50 mg/kg
endpoint_label: AUC(0-t) (µg·h/mL)
Express your answer in µg·h/mL, writing the number without its unit.

Looking up COC(=O)C1=CNC=C(C(=O)OC)C1c1ccc(F)c(C(F)(F)F)c1 [Compound 103] , I see its AUC(0-t) listed as 20
